Listing: CC50 of selected compounds
Assay: in vitro
Assay type: cell-based
Details: human, CC50

See these solved cases before continuing.
compound	quantityKind	testValue
C=C(C)[C@@H]1CC[C@]2(C(=O)N[C@@H]3CC[C@H](CN4CCN(CC)CC4)C3)CC[C@]3(C)[C@H](CC[C@@H]4[C@@]5(C)CC[C@H](OC(=O)CC(C)(C)C(=O)O)C(C)(C)[C@@H]5CC[C@]43C)[C@@H]12 [Example 36]	CC50	> 20 µM
C=C(C)[C@@H]1CC[C@]2(C(=O)N[C@H]3C[C@@H](C(=O)N4CCOCC4)C3(C)C)CC[C@]3(C)[C@H](CC[C@@H]4[C@@]5(C)CC[C@H](O)C(C)(C)[C@@H]5CC[C@]43C)[C@@H]12 [Example 8]	CC50	20 µM
C=C(C)[C@@H]1CC[C@]2(C(=O)N[C@H]3C[C@@H](C(=O)N4CCCCC4)C3(C)C)CC[C@]3(C)[C@H](CC[C@@H]4[C@@]5(C)CC[C@H](O)C(C)(C)[C@@H]5CC[C@]43C)[C@@H]12 [Example 11]	CC50	> 20 µM

Continue with the compound presented below.
// query Please list CC50 recorded for the compound C=C(C)[C@@H]1CC[C@]2(C(=O)N[C@@H]3C[C@H](C(=O)N4CCCCC4)C3(C)C)CC[C@]3(C)[C@H](CC[C@@H]4[C@@]5(C)CC[C@H](OC(=O)CC(C)(C)C(=O)O)C(C)(C)[C@@H]5CC[C@]43C)[C@@H]12 [Example 48]
// result > 20 µM

----------
Tested on: HIV-1 strain CNHN24
Experiment: Anti-HIV-1 luciferase indicator assay in MT2 cells, CNHN24
Format: cell-based
Conditions: MT2 cells, viral strain CNHN24
Procedure: Compound was dissolved in DMSO to make 30 mM stock. Then the 30 mM stock is further diluted to 4 mM using DMSO. […] MT2 cells were mixed with HIV-1 strain NL4-3 (or IIIB, or CNHN24) and the cell/virus mixture was added to the aforementioned antivirus assay plates. […] The expression level of luciferase was related to HIV-1 infectivity and was measured by Bright-Glo kit (Promega). Therapeutic index (TI) was determined by taking ratio of CC50/IC50
quantityKind: TI / Safety Index (CC50/IC50)

See these solved cases before continuing.
molSmiles	assaySystem	TI / Safety Index (CC50/IC50)
C=C(C)[C@@H]1CC[C@]2(C(=O)N[C@@H]3C[C@H](C(=O)N4CCCC4)C3(C)C)CC[C@]3(C)[C@H](CC[C@@H]4[C@@]5(C)CC[C@H](OC(=O)CC(C)(C)C(=O)O)C(C)(C)[C@@H]5CC[C@]43C)[C@@H]12	HIV-1 strain CNHN24	800
C=C(C)[C@@H]1CC[C@]2(C(=O)N[C@H]3C[C@@H](C(=O)N4CCCCC4)C3(C)C)CC[C@]3(C)[C@H](CC[C@@H]4[C@@]5(C)CC[C@H](OC(=O)CC(C)(C)C(=O)O)C(C)(C)[C@@H]5CC[C@]43C)[C@@H]12	HIV-1 strain CNHN24	383
C=C(C)[C@@H]1CC[C@]2(C(=O)N[C@H]3C[C@@H](C(=O)N4CCOCC4)C3(C)C)CC[C@]3(C)[C@H](CC[C@@H]4[C@@]5(C)CC[C@H](OC(=O)CC(C)(C)C(=O)O)C(C)(C)[C@@H]5CC[C@]43C)[C@@H]12	HIV-1 strain CNHN24	2429
C=C(C)[C@@H]1CC[C@]2(C(=O)N[C@H]3C[C@@H](C(=O)N4CCCCC4)C3(C)C)CC[C@]3(C)[C@H](CC[C@@H]4[C@@]5(C)CC[C@H](O)C(C)(C)[C@@H]5CC[C@]43C)[C@@H]12	HIV-1 strain CNHN24	3.4

// query Fill in: TI / Safety Index (CC50/IC50) on HIV-1 strain CNHN24, entry `C=C(C)[C@@H]1CC[C@]2(C(=O)N[C@@H]3CC[C@H](CN4CCC(Cc5ccccc5)CC4)C3)CC[C@]3(C)[C@H](CC[C@@H]4[C@@]5(C)CC[C@H](OC(=O)CCCC(=O)O)C(C)(C)[C@@H]5CC[C@]43C)[C@@H]12`
// result 2.98

Origin of measurements: patent US9067966B2
